system: IL-8; test: Glucocorticoid transrepression assay, IL-8 inhibition (TR); assay type: cell-based; settings: Homo sapiens; Table 1; NCl-H292 cells, TNFα 10 ng/ml
Would you kindly list IC50 for each of these compounds?

Q) Report IC50 for Cc1ccnc(SCC(=O)[C@@]2(O)CCC3C4CCC5=Cc6c(cnn6-c6ccccn6)CC5(C)C4[C@@H](O)CC32C)n1 (some centres unmarked)
A) 21 to 65 nM

Q) Report IC50 for Cn1c(OCC(=O)[C@@]2(O)CCC3C4CCC5=Cc6c(cnn6-c6ccc(F)cc6)CC5(C)C4[C@@H](O)CC32C)nc2ccccc21 (some centres unmarked)
A) 0.06 to 20 nM

Q) Report IC50 for CC12Cc3cnn(-c4ccccn4)c3C=C1CCC1C2[C@@H](O)CC2(C)C1CC[C@]2(O)C(=O)CSc1nc2cccnc2s1 (some centres unmarked)
A) 66 to 400 nM

Q) Report IC50 for Cn1ncc2c1C=C1CCC3C([C@@H](O)CC4(C)C3CC[C@]4(O)C(=O)CSc3nc4ncccc4o3)C1(C)C2 (some centres unmarked)
A) 401 to 1000 nM

Q) Report IC50 for CC12Cc3cnn(-c4ccc(F)cc4)c3C=C1CCC1C2[C@@H](O)CC2(C)C1CC[C@]2(O)C(=O)CSc1nc2cccnc2s1 (some centres unmarked)
A) 0.06 to 20 nM

Q) Report IC50 for CC12Cc3cnn(-c4ccc(F)cc4)c3C=C1CCC1C2[C@@H](O)CC2(C)C1CC[C@]2(O)C(=O)CSc1cnc2ccccc2n1 (some centres unmarked)
A) 0.06 to 20 nM

Q) Report IC50 for Cn1c(OCC(=O)[C@@]2(O)CCC3C4CCC5=Cc6c(cnn6-c6ccccc6)CC5(C)C4[C@@H](O)CC32C)nc2ccccc21 (some centres unmarked)
A) 0.06 to 20 nM

Q) Report IC50 for CC12Cc3cnn(-c4ccc(F)cc4)c3C=C1CCC1C2[C@@H](O)CC2(C)C1CC[C@]2(O)C(=O)CSc1nc2ccc(O)cc2[nH]1 (some centres unmarked)
A) 0.06 to 20 nM

Q) Report IC50 for Cn1ncc2c1C=C1CCC3C([C@@H](O)CC4(C)C3CC[C@]4(O)C(=O)CSc3ccc4ccccc4n3)C1(C)C2 (some centres unmarked)
A) 66 to 400 nM

Q) Report IC50 for Cn1nnnc1SCC(=O)[C@@]1(O)CCC2C3CCC4=Cc5c(cnn5-c5ccc(F)cc5)CC4(C)C3[C@@H](O)CC21C (some centres unmarked)
A) 0.06 to 20 nM

Q) Report IC50 for Cn1c(SCC(=O)[C@@]2(O)CCC3C4CCC5=Cc6c(cnn6-c6ccc(F)cc6)CC5(C)C4[C@@H](O)CC32C)nc2cc(S(N)(=O)=O)ccc21 (some centres unmarked)
A) 0.06 to 20 nM

Q) Report IC50 for CC12Cc3cnn(-c4ccccn4)c3C=C1CCC1C2[C@@H](O)CC2(C)C1CC[C@]2(O)C(=O)CSc1ccccn1 (some centres unmarked)
A) 66 to 400 nM

Q) Report IC50 for Cc1cc(C)nc(SCC(=O)[C@@]2(O)CCC3C4CCC5=Cc6c(cnn6-c6ccc(F)cc6)CC5(C)C4[C@@H](O)CC32C)n1 (some centres unmarked)
A) 0.06 to 20 nM

Q) Report IC50 for CC12Cc3cnn(-c4ccccn4)c3C=C1CCC1C2[C@@H](O)CC2(C)C1CC[C@]2(O)C(=O)CSc1cnc2ccccc2n1 (some centres unmarked)
A) 401 to 1000 nM

Q) Report IC50 for CC12Cc3cnn(-c4ccccc4)c3C=C1CCC1C2[C@@H](O)CC2(C)C1CC[C@]2(O)C(=O)COc1ccccn1 (some centres unmarked)
A) 0.06 to 20 nM

Q) Report IC50 for CC12Cc3cnn(-c4ccccn4)c3C=C1CCC1C2[C@@H](O)CC2(C)C1CC[C@]2(O)C(=O)CSc1ncccn1 (some centres unmarked)
A) 66 to 400 nM

Q) Report IC50 for CC12Cc3cnn(-c4ccccc4)c3C=C1CCC1C2[C@@H](O)CC2(C)C1CC[C@]2(O)C(=O)COc1nc2ccccc2[nH]1 (some centres unmarked)
A) 0.06 to 20 nM

Q) Report IC50 for CC12Cc3cnn(-c4ccccn4)c3C=C1CCC1C2[C@@H](O)CC2(C)C1CC[C@]2(O)C(=O)CSc1nc2ccccc2o1 (some centres unmarked)
A) 0.06 to 20 nM

Q) Report IC50 for COc1ccc(-n2ncc3c2C=C2CCC4C([C@@H](O)CC5(C)C4CC[C@]5(O)C(=O)CSc4nc5ccccc5s4)C2(C)C3)cc1 (some centres unmarked)
A) 66 to 400 nM

Q) Report IC50 for Cn1ncc2c1C=C1CCC3C([C@@H](O)CC4(C)C3CC[C@]4(O)C(=O)CSc3nc4ccccc4n3C)C1(C)C2 (some centres unmarked)
A) 66 to 400 nM

Q) Report IC50 for CC12Cc3cnn(-c4ccc(F)cc4)c3C=C1CCC1C2[C@@H](O)CC2(C)C1CC[C@]2(O)C(=O)CC#N (some centres unmarked)
A) 0.06 to 20 nM

Q) Report IC50 for COc1ccc(-n2ncc3c2C=C2CCC4C([C@@H](O)CC5(C)C4CC[C@]5(O)C(=O)CSc4ccccn4)C2(C)C3)cc1 (some centres unmarked)
A) 66 to 400 nM

Q) Report IC50 for Cc1ccnc(SCC(=O)[C@@]2(O)CCC3C4CCC5=Cc6c(cnn6C6CCCCC6)CC5(C)C4[C@@H](O)CC32C)n1 (some centres unmarked)
A) 0.06 to 20 nM

Q) Report IC50 for Cc1cccc(SCC(=O)[C@@]2(O)CCC3C4CCC5=Cc6c(cnn6C)CC5(C)C4[C@@H](O)CC32C)n1 (some centres unmarked)
A) 66 to 400 nM

Q) Report IC50 for CC12Cc3cnn(-c4ccc(F)cc4)c3C=C1CCC1C2[C@@H](O)CC2(C)C1CC[C@]2(O)C(=O)COc1nc2ccccc2[nH]1 (some centres unmarked)
A) 0.06 to 20 nM

Q) Report IC50 for CC12Cc3cnn(-c4ccccc4)c3C=C1CCC1C2[C@@H](O)CC2(C)C1CC[C@]2(O)C(=O)COc1ccc2ccccc2c1 (some centres unmarked)
A) 0.06 to 20 nM

* * *

system: IL-8; assay: Glucocorticoid transrepression assay, IL-8 inhibition (TR); format: cell-based; conditions: Homo sapiens; Table 1; NCl-H292 cells, TNFα 10 ng/ml; read-out: IL-8 inhibition (TR) Emax % inhibition
Value Type: Emax

Q) Report Emax for CC12Cc3cnn(-c4ccc(F)cc4)c3C=C1CCC1C2[C@@H](O)CC2(C)C1CC[C@]2(O)C(=O)CSc1nc2ccc(N)cc2s1 (stereo partly drawn)
A) > 80%

Q) Report Emax for Cn1c(SCC(=O)[C@@]2(O)CCC3C4CCC5=Cc6c(cnn6-c6nc7ccccc7[nH]6)CC5(C)C4[C@@H](O)CC32C)nc2ccccc21 (stereo partly drawn)
A) < 60%

Q) Report Emax for Cn1c(SCC(=O)[C@@]2(O)CCC3C4CCC5=Cc6c(cnn6-c6ccc(C(C)(C)C)cc6)CC5(C)C4[C@@H](O)CC32C)nc2ccccc21 (stereo partly drawn)
A) < 60%

Q) Report Emax for Cn1c(SCC(=O)[C@@]2(O)CCC3C4CCC5=Cc6c(cnn6-c6ccccc6)CC5(C)C4[C@@H](O)CC32C)nc2ccccc21 (stereo partly drawn)
A) > 80%

Q) Report Emax for CC12Cc3cnn(-c4ccccc4)c3C=C1CCC1C2[C@@H](O)CC2(C)C1CC[C@]2(O)C(=O)CSc1ccc2ccccc2n1 (stereo partly drawn)
A) > 80%

Q) Report Emax for Cn1c(OCC(=O)[C@@]2(O)CCC3C4CCC5=Cc6c(cnn6-c6ccccc6)CC5(C)C4[C@@H](O)CC32C)nc2ccccc21 (stereo partly drawn)
A) > 80%

* * *

Tested on: IL-8
Assay: Glucocorticoid transrepression assay, IL-8 inhibition (TR)
Format: cell-based
Conditions: Homo sapiens; Table 1; NCl-H292 cells, TNFα 10 ng/ml; read-out: IL-8 inhibition (TR) Emax % inhibition
Method: Human Lung epithelial cell line NCl-H292 cells were dissociated from stock flask using 0.05% trypsin/0.53 mM EDTA. Cells were suspended in complete medium and counted. Cells were plated in 96-well flat-bottom plates at 20K cells /well in 0.2 ml/well. Plates were incubated for 24-48 hours until cells were between 75-90% confluent. […] The cell culture medium was sampled and IL-6 and IL-8 cytokine production was measured using the MSD Multi-Spot immunoassay.
Would you kindly list Emax for each of these molecules?

Q) Report Emax for CC12Cc3cnn(C4CCOCC4)c3C=C1CCC1C2[C@@H](O)CC2(C)C1CC[C@]2(O)C(=O)CSc1nc2ccccc2s1 (some centres unmarked)
A) 70 to 80%

Q) Report Emax for Cc1ccccc1-n1ncc2c1C=C1CCC3C([C@@H](O)CC4(C)C3CC[C@]4(O)C(=O)CSc3ccc4ccccc4n3)C1(C)C2 (some centres unmarked)
A) < 60%

Q) Report Emax for CC12Cc3cnn(-c4ccccn4)c3C=C1CCC1C2[C@@H](O)CC2(C)C1CC[C@]2(O)C(=O)CSc1ccccn1 (some centres unmarked)
A) 70 to 80%

Q) Report Emax for COc1ccc(-n2ncc3c2C=C2CCC4C([C@@H](O)CC5(C)C4CC[C@]5(O)C(=O)CSc4nc5cccnc5s4)C2(C)C3)cc1 (some centres unmarked)
A) 60 to 70%

Q) Report Emax for Cn1c(SCC(=O)[C@@]2(O)CCC3C4CCC5=Cc6c(cnn6CCC#N)CC5(C)C4[C@@H](O)CC32C)nc2ccccc21 (some centres unmarked)
A) < 60%

Q) Report Emax for CC12Cc3cnn(-c4ccc(F)cc4)c3C=C1CCC1C2[C@@H](O)CC2(C)C1CC[C@]2(O)C(=O)CSc1nc(-c2ccccc2)c(-c2ccccc2)o1 (some centres unmarked)
A) > 80%

Q) Report Emax for Cn1ncc2c1C=C1CCC3C([C@@H](O)CC4(C)C3CC[C@]4(O)C(=O)CSc3nc4ccccc4s3)C1(C)C2 (some centres unmarked)
A) < 60%

Q) Report Emax for CC12Cc3cnn(CCC#N)c3C=C1CCC1C2[C@@H](O)CC2(C)C1CC[C@]2(O)C(=O)CSc1ncccn1 (some centres unmarked)
A) < 60%

Q) Report Emax for CC12Cc3cnn(-c4ccccc4)c3C=C1CCC1C2[C@@H](O)CC2(C)C1CC[C@]2(O)C(=O)CSc1ccccn1 (some centres unmarked)
A) > 80%

Q) Report Emax for Cn1cnnc1SCC(=O)[C@@]1(O)CCC2C3CCC4=Cc5c(cnn5-c5ccccn5)CC4(C)C3[C@@H](O)CC21C (some centres unmarked)
A) < 60%

Q) Report Emax for CC12Cc3cnn(-c4ccccn4)c3C=C1CCC1C2[C@@H](O)CC2(C)C1CC[C@]2(O)C(=O)CSc1nc2ccccc2s1 (some centres unmarked)
A) 60 to 70%

Q) Report Emax for Cn1ncc2c1C=C1CCC3C([C@@H](O)CC4(C)C3CC[C@]4(O)C(=O)CSc3nc4ccccc4n3C)C1(C)C2 (some centres unmarked)
A) 60 to 70%

Q) Report Emax for CC12Cc3cnn(-c4ccccc4)c3C=C1CCC1C2[C@@H](O)CC2(C)C1CC[C@]2(O)C(=O)COc1ccc2ccccc2c1 (some centres unmarked)
A) > 80%

Q) Report Emax for Cc1cc(C)nc(SCC(=O)[C@@]2(O)CCC3C4CCC5=Cc6c(cnn6-c6ccc(F)cc6)CC5(C)C4[C@@H](O)CC32C)n1 (some centres unmarked)
A) > 80%

Q) Report Emax for Cn1ncc2c1C=C1CCC3C([C@@H](O)CC4(C)C3CC[C@]4(O)C(=O)CSc3nc4ccccc4o3)C1(C)C2 (some centres unmarked)
A) < 60%

Q) Report Emax for COc1ccc(-n2ncc3c2C=C2CCC4C([C@@H](O)CC5(C)C4CC[C@]5(O)C(=O)CSc4ccccn4)C2(C)C3)cc1 (some centres unmarked)
A) 60 to 70%

Q) Report Emax for Cn1c(SCC(=O)[C@@]2(O)CCC3C4CCC5=Cc6c(cnn6-c6ccc(F)cc6)CC5(C)C4[C@@H](O)CC32C)nc2ccccc21 (some centres unmarked)
A) > 80%

Q) Report Emax for Cn1cnnc1SCC(=O)[C@@]1(O)CCC2C3CCC4=Cc5c(cnn5CCC#N)CC4(C)C3[C@@H](O)CC21C (some centres unmarked)
A) < 60%

Q) Report Emax for Cc1ccccc1-n1ncc2c1C=C1CCC3C([C@@H](O)CC4(C)C3CC[C@]4(O)C(=O)CSc3nc4ccccc4s3)C1(C)C2 (some centres unmarked)
A) < 60%

Q) Report Emax for CC12Cc3cnn(C(C)(C)C)c3C=C1CCC1C2[C@@H](O)CC2(C)C1CC[C@]2(O)C(=O)CSc1nc2cccnc2s1 (some centres unmarked)
A) < 60%
